- tgt: Human TfR1 protein (R&D Systems, 2474-TR or Acro Biosystems, CD1-H5243) (human, UniProt P02786 89-760)
- Sequence (P02786 89-760 limits assumed): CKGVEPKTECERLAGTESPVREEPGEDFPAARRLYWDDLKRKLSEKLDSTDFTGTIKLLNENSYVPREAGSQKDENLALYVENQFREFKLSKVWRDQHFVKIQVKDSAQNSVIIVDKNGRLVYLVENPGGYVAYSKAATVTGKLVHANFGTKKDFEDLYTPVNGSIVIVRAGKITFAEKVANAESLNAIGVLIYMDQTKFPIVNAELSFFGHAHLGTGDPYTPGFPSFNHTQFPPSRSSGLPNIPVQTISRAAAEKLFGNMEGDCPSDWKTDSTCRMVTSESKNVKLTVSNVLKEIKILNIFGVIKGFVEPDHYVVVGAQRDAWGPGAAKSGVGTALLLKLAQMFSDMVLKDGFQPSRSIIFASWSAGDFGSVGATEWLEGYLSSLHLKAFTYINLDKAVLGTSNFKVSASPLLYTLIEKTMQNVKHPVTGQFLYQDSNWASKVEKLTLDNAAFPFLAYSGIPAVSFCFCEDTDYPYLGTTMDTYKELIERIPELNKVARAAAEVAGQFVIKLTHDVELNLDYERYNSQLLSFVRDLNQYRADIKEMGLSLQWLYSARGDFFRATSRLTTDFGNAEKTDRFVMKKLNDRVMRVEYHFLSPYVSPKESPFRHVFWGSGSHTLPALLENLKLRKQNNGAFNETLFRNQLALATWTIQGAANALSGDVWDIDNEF
- experimentalDetails: FP competition, competitor BCY15768
Starred links: 1 amine or outer side, 2 acyl side, 3 side chain; linkers in the order of their positions; H or OH if unused. Positions of bridges follow the written chain, without caps; N, C: chain ends. Non-standard residues stand in square brackets, D forms with d. No end group written: not given here. TATB = O=C(C[*:1])N1CN(C(=O)C[*:2])CN(C(=O)C[*:3])C1; 4Pal = N[C@@H](Cc1ccncc1)C(=O)O
measurementKind: Ki (nM)

[a] Ac-CSADAHLGCISYC (linker 1-9-13 via TATB (inferred)) [BCY17987]
[b] ACSPDAHLGCIS[4Pal]CA (linker 2-10-14 via TATB) [BCY16032]
[c] HWMCSPDAHLGCISYCA (linker 4-12-16 via TATB) [BCY17110]
Q: Put the entries in order of Ki, starting with the largest number. List the labels, following the order given in the request.
Result: b, a, c
(b: 654 nM, a: 42 nM, c: 22 nM)
